System: Fibroblast
Assay: Multiplex assay against human fibroblast
Type: toxicity, cell-based
Settings: 48 h, 1 µM, compound concentration 1 uM, replicate 2
Measured Population Normal (%), listed per entry for reference.
Form entry: value (%) — number only.

N#Cc1c(Oc2cccc(OS(=O)(=O)CCCC(F)(F)F)c2)cccc1C(F)(F)F; 94

Population Normal (%) for CC(C)COc1ccc(CNC(=O)N(Cc2ccc(F)cc2)C2CCN(C)CC2)cc1 is 94

Population Normal (%) for Cc1onc(-c2ccccc2Cl)c1C(=O)N(C)c1ccc(Cl)cc1 is 88

Population Normal (%) for CN1CCN(c2cc(-c3ccccc3)nc(N)n2)CC1 is 96

Population Normal (%) for CCc1cc2cc(NS(=O)(=O)c3ccc(C#N)cc3)ccc2n(CC)c1=O is 94
